B1: PWWP2B (parent)
chain: TIRLRPRQVLCEKCKSTLSPPEAS

variants of: B1; assay: protein stability index of a GFP-peptide fusion (GPS, HEK-293T) (PSI 1-6); higher = more stable; conditions: c terminus: a fixed tail appended;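 further: lentivirally expressed fusions sorted by FACS into six bins by GFP to DsRed ratio, PSI derived from sequencing read proportions per bin multiplied by bin number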
assay-metric: protein stability index
The response must contain the number and no unit.

See these solved cases before continuing.
>  <sequence>
TIRLRPRSVLCEKCKSTLSPPEAS

>  <protein stability index>
3.05

$$$$
>  <sequence>
TIRLRPRCVLCEKCKSTLSPPEAS

>  <protein stability index>
2.09

$$$$
>  <sequence>
LIRLRPRQVLCEKCKSTLSPPEAS

>  <protein stability index>
2.28

$$$$
>  <sequence>
TIRFRPRQVLCEKCKSTLSPPEAS

>  <protein stability index>
2.77

$$$$
>  <sequence>
TIRLNPRQVLCEKCKSTLSPPEAS

>  <protein stability index>
2.78

$$$$

[Q] Look up protein stability index: TIRLRPRQVVCEKCKSTLSPPEAS
[A] 3.61

[Q] // next record TIRLRPRQVLCEKCKSTDSPPEAS
[A] 3.78

[Q] // next record TIRLCPRQVLCEKCKSTLSPPEAS
[A] 2.77

[Q] // next record TISLRPRQVLCEKCKSTLSPPEAS
[A] 3.37

[Q] // next record TIELRPRQVLCEKCKSTLSPPEAS
[A] 4.37

[Q] // next record TIRLRPRQVLCQKCKSTLSPPEAS
[A] 2.33

[Q] // next record AIRLRPRQVLCEKCKSTLSPPEAS
[A] 2.59
